// data source = patent US20250051821

# tgt: T1, IFF05588
# T1 chain: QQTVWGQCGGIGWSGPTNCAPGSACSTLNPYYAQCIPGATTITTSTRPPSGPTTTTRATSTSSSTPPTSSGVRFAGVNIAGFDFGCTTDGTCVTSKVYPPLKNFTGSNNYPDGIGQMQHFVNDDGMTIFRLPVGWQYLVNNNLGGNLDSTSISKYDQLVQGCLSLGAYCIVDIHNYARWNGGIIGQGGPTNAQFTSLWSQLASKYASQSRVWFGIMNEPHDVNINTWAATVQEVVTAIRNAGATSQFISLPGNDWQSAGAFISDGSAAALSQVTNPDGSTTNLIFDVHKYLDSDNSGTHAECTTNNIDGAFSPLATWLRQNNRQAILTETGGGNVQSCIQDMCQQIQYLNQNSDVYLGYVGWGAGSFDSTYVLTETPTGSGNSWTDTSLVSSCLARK
recorded_endpoint: Relative late peak area (centered, scaled, averaged over 5, 10 and 15 min)
One number for each entry.

Answered cases to consult:
{"protein": "IFF21353 (protein) NLDKPVIQPNFPSLAPGLMSHLAPTHSTWDDWGAGWIPQDCKSMVQGAGFSPNDIIPFNIHYDDCGQTWTFCRHKNSPLSELQILDMFGRLPVRMRSFVRHLVFVPGNRSAGSNGDNILVVGDGDITLFAHEIGHSLDSHAFDPSYGVPFSTGNVWVSNYNLDSAVSDSYAQTSQQENFAQETVISLFDKVVPGGIGTIQPNWQAIFHQYATLQGYIGNVIIPGGTCTHRLTDSPPVPMSGSAKSRRGLGPKPEVSLSPEVKEIEAIPMESSITMTSFDEHGKPNGTYVIHLK", "val": -1.06}
{"protein": "IFF21350 (protein) NLNKPVIQPNFPGNGLASLGQGILDHLAPTQSTWDDWGAGWIPQDCKSLAQGAGLSPNDIIPFNIHYADCAQTWTFCRHKNSPLSEVNIIDLFGRLPVRMRQFVRHLVFIPGNKSAGSNGDNVLMVGPVDITVFAHEIGHSLDSHAFDPSYGVPFSTGNVWVSNYNLDSAVPDPYAQSSQQENFAQHTVISIYDKAVPGGIGTIQPNWQAIFHQYATLEGYIGDIIIPGGTCTHRLTDSPPVTMASKRRALGPKPKVALSPEVEEIEAIPMKNTITMTSFDEAGKPNGSYVINL", "val": 1.55}
{"protein": "IFF21377 (protein) KRLDKPALTPDLGYLLQGSVDNLHPTHSTWDKWGDGWIPEDCKSMAQNPNLNLNLNPSDFEVYNVHYDDCGDAWVLCRHKDSPVDLVTTVDIFGRLPVRMRDWVRHVMTVPGNDYAFNLNGNIVFSGRTSTNMDVAIHETGHSLDLLKAYGEVLSSSQTWIDNYNQDSNVPDNYAQSSQIENVAQNTVVSVFDKIVPGGFGSVQPNWHNIFHQYATLKSKAGDLILPGGQCDRRLKDSSPIPMDSNANEQGLLSWKPRTSFVNTYNNIVTNFEPFNTAEHCKESFS", "val": -0.99}

Summary for this protein, IFF21333 (protein) RLDKPIINPTFPGGGLDSLAQGLLDHLAPTQSTHDNWGAGYIPEDCKNLAKSNGFSPFDITPFNIHYSDCNDVWIFCRHKDSPLSQIDMIDLFGRMPVHMREYIRHVIALPGNKSAGSSGDNIQMNGAVGITVFVHETGHSLDSHGFDPKYGVPFSNSKTWLDNYNMDTAVCDSYAQSSQQENLAQETVVGLYDKVVPGGVGNIQPNWKAIFHQYATVQGYLGDILTPGGTCRHRLANSKPVPMGDSAKFRRDLGPAPDVSLSSDVIEIESIPMGSSIRITEFDEAGNPIGSKNVSLVM : Relative late peak area (centered, scaled, averaged over 5, 10 and 15 min) is 0.26
